These measurements were taken from ChEMBL document CHEMBL1201862.

test system: Hs-578T; experiment: NCI tumour cell line growth inhibition, 48 h
Calls of active or inactive are those of the source. No stated cut-off is given here; in the data, active = GI50 up to about 1.1 µM and inactive = higher.
readout type: GI50

Use these answered entries as a reference point.
- CCOC(=O)C1C=C1C(C)(C)O (stereo not given): > 10 µM (inactive)
- CC[N+]1(C)CCC(O)(c2ccccc2)C(C(=O)c2ccccc2)C1 (stereo not given): 24 µM (inactive)
- Nc1nc(N)c2ncn(CC3CCC(CO)C3)c2n1 (stereo not given): > 100 µM (inactive)
- CCOC(=O)C(NC(=O)CC(C)C)(Nc1ccc(C(F)(F)F)cc1)C(F)(F)F (stereo not given): 25.5 µM (inactive)
- Cc1ccc(-n2cc(-c3ccc(Cl)cc3)c(C#N)c2N)cc1: 2.38 µM (inactive)
- C1COCCOP2(N3CC3)=NP(N3CC3)(=NP(N3CC3)(N3CC3)=N2)OCCOCCO1 (stereo not given): > 100 µM (inactive)
- CCOC(=O)[C@@]12NN=N[C@@H]1[C@H]1CO[C@H](c3ccccc3)N1C2=O: 4.6 µM (inactive)
- COc1ccccc1OCC(=N/NC(=O)c1ccncc1)/N=C/c1ccncc1: > 100 µM (inactive)

Problem: Fill in the blank: the reported GI50 of CCN(CC)CCNC(=O)c1cn2c(ccc3sc4ccccc4c(=O)c32)n1 is ____.
Result: 15.3 µM (inactive)

Problem: Fill in the blank: the reported GI50 of O=C(/C=C/c1ccsc1)c1ccc(Cl)cc1 is ____.
Result: 57.8 µM (inactive)

Problem: Fill in the blank: the reported GI50 of COc1cc(S(=O)(=O)Nc2ccc(-c3csc(/N=C\c4cccc(Oc5ccccc5)c4)n3)cc2)ccc1Cl is ____.
Result: 60.4 µM (inactive)

Problem: Fill in the blank: the reported GI50 of COc1cc2c(c(O)c1O)C(=O)C1CCC(=O)N1C2c1cccc2ccccc12 (stereo not given) is ____.
Result: > 50 µM (inactive)

Problem: Fill in the blank: the reported GI50 of C#C[C@]1(O)CC[C@H]2[C@@H]3CCC4=C/C(=N/CCOC(=O)c5cccc6c(=O)c7ccccc7[nH]c56)CC[C@@H]4[C@H]3CC[C@@]21C is ____.
Result: 35.2 µM (inactive)

Problem: Fill in the blank: the reported GI50 of CCOC(=O)C1=C(C)N(c2ccc(Cl)cc2)C2(O)C=CC(Nc3ccc(Cl)cc3)=C3C(=O)N(c4ccccc4)C(=O)C312 (stereo not given) is ____.
Result: 5.51 µM (inactive)

Problem: Fill in the blank: the reported GI50 of Cc1cc(C)c(-n2c(-c3ccc(Br)cc3)cs/c2=N\N=C2C=C(C(C)(C)C)C(=O)C(C(C)(C)C)=C2)c(C)c1 is ____.
Result: 15.3 µM (inactive)

----------
system: U-251; experiment: NCI tumour cell line growth inhibition, 48 h
Activity calls are given as the source filed them. No stated cut-off is given here; in the data, active = GI50 up to about 1.1 µM and inactive = higher.
Valid outcomes are listed here; reply with one: active, inactive

Problem: Please state the recorded outcome for this compound: CC(C)CS(=O)(=O)/C(=C(\c1ccc(Br)cc1)S(=O)(=O)CC(C)C)c1ccc(Br)cc1
Result: inactive

Problem: Please state the recorded outcome for this compound: COC(=O)C1C(=O)C(C(=O)OC)C2CCC1N2C (configuration not stated)
Result: inactive

Problem: Please state the recorded outcome for this compound: CCOC(=O)[C@@]12NN=N[C@@H]1[C@H]1CO[C@H](c3ccccc3)N1C2=O
Result: inactive

Problem: Please state the recorded outcome for this compound: CC(=O)OC[C@@H](OC(C)=O)[C@H](OC(C)=O)[C@@H]1OC(C)(C)O[C@@H]1C1SCCCS1
Result: inactive

Problem: Please state the recorded outcome for this compound: O=C(O)c1nn[nH]c1S
Result: inactive

Problem: Please state the recorded outcome for this compound: O=C(O)c1ccccc1[Se][Se]c1ccccc1C(=O)O
Result: inactive

Problem: Please state the recorded outcome for this compound: O=C1OC(CCCl)(c2ccccc2)CC1CN1CCOCC1 (configuration not stated)
Result: inactive

Problem: Please state the recorded outcome for this compound: O=C1c2ccccc2C(=O)N1C/C=N/NS(=O)(=O)c1ccc2ccccc2c1
Result: inactive
